Test system: OVCAR-5 ovarian
Assay: NCI tumour cell line growth inhibition, 48 h; in the data active means GI50 below about 0.43 µM; inactive means the rest
Outcome codes: 1 for active, -1 for inactive

[[record]]
compound = "COc1cc2c(cc1-c1c(C)noc1C)ncc1[nH]c(=O)n([C@H](C)c3ccccn3)c12"
class_assignment = -1

[[record]]
compound = "Cc1[nH]ccc2cc3nc4ccccc4c3cc12"
class_assignment = -1

[[record]]
compound = "CCCCc1oc2ccccc2c1C(=O)c1cc(I)c(OCCN(CC)CC)c(I)c1"
class_assignment = -1

[[record]]
compound = "CC1CCC(C#N)(NOC2=NCCN2)CC1 (stereo not given)"
class_assignment = -1

[[record]]
compound = "NCCCn1c2c(c3ccc([N+](=O)[O-])cc3c1=O)C(=O)c1cc(Cl)ccc1-2"
class_assignment = 1


* * *

Test system: RPMI-8226 leukemia
Assay: NCI tumour cell line growth inhibition, 48 h
Listed here: items and their measured TGI.
measurement-type: TGI (µM)

[[record]]
molecule = "CC(=O)O[C@H]1CC[C@H]2[C@@H]3CC[C@H]4Nc5c(cnn5S(C)(=O)=O)C[C@]4(C)[C@H]3CC[C@]12C"
measurement_units = "µM"
value_modifier = ">"
result_value = 100

[[record]]
molecule = "COc1ccc2c(c1)-c1c(c3ccccc3n1CCN1CCOCC1)CC2"
measurement_units = "µM"
value_modifier = "="
result_value = 97

[[record]]
molecule = "Cc1cccc2cc3ccc4ccccc4c3cc12"
measurement_units = "µM"
value_modifier = ">"
result_value = 100

[[record]]
molecule = "COc1ccc2nc(C3=CN(C4OC(CO)C(O)C(O)C4O)C4C=CC=CC34)sc2c1 (stereo unspecified)"
measurement_units = "µM"
value_modifier = ">"
result_value = 100

[[record]]
molecule = "CCC(=O)n1c(=O)n(-c2ccc([N+](=O)[O-])cc2)c(=O)n1C(=O)CC"
measurement_units = "µM"
value_modifier = ">"
result_value = 100

[[record]]
molecule = "CCN(CC)CCNC(=O)c1cc2cc(NC(=O)c3cc4cc(NC(=O)c5cc6cc([N+](=O)[O-])ccc6[nH]5)ccc4[nH]3)ccc2[nH]1"
measurement_units = "µM"
value_modifier = ">"
result_value = 100

[[record]]
molecule = "CCC(C)N1CN(c2ccccc2)C2(CCN(CCCC(=O)c3ccc(F)cc3)CC2)C1=O (stereo unspecified)"
measurement_units = "µM"
value_modifier = "="
result_value = 31.5

[[record]]
molecule = "COc1ccc(C2c3c(-c4ccccc4)nn(-c4ccccc4)c3Oc3ncn(N)c(=N)c32)cc1OC (stereo unspecified)"
measurement_units = "µM"
value_modifier = ">"
result_value = 25.1

[[record]]
molecule = "NCCCn1c2c(c3ccc([N+](=O)[O-])cc3c1=O)C(=O)c1cc(Cl)ccc1-2"
measurement_units = "µM"
value_modifier = "="
result_value = 0.0367

[[record]]
molecule = "C[C@@H]1CCC2[C@@H](C)[C@H](OC(=O)CCC(=O)NCCNC(=O)Cc3cc(=O)oc4cc(N(C)C)ccc34)O[C@@H]3O[C@]4(C)CC[C@@H]1C23OO4 (stereo partly specified)"
measurement_units = "µM"
value_modifier = "="
result_value = 32.9

[[record]]
molecule = "C#CCOc1cccc(Nc2ncnc3c2ncn3C2CCN(C(=O)CCl)C2)c1 (stereo unspecified)"
measurement_units = "µM"
value_modifier = "="
result_value = 44.2


* * *

System: HL-60(TB) leukemia
Assay: NCI tumour cell line growth inhibition, 48 h; in the data active = GI50 below about 0.43 µM; inactive = the rest
Outcomes: T for active, F for inactive

[[record]]
molecule = "CN1CCN(c2ccc([N+](=O)[O-])c3no[n+]([O-])c23)CC1"
system_tested = "HL-60(TB) leukemia"
class_assignment = "T"

[[record]]
molecule = "Clc1ccc2c(NCCN3CCN(c4ccnc(N5CCCC5)n4)CC3)ccnc2c1"
system_tested = "HL-60(TB) leukemia"
class_assignment = "F"

[[record]]
molecule = "O=C(Nn1c2c(sc1=NC1CC1)C(=O)c1ccccc1C2=O)c1cc2ccc1CCc1ccc(cc1)CC2"
system_tested = "HL-60(TB) leukemia"
class_assignment = "F"

[[record]]
molecule = "C#CCOc1cccc(Nc2ncnc3c2ncn3C2CCN(C(=O)CCl)C2)c1 (configuration not stated)"
system_tested = "HL-60(TB) leukemia"
class_assignment = "F"

[[record]]
molecule = "Cc1[nH]ccc2cc3nc4ccccc4c3cc12"
system_tested = "HL-60(TB) leukemia"
class_assignment = "F"

[[record]]
molecule = "COc1cc(/C=N/O)nc(-c2ccccn2)c1"
system_tested = "HL-60(TB) leukemia"
class_assignment = "T"

[[record]]
molecule = "CCOC(=O)c1cn2ncnc(Oc3ccc(NC(=O)NCCN(CC)CC)c(Cl)c3)c2c1C"
system_tested = "HL-60(TB) leukemia"
class_assignment = "F"


* * *

Documented TGI across a set of molecules
System: TK-10 renal
Assay: NCI tumour cell line growth inhibition, 48 h
measurement-type: TGI (µM)

[[record]]
molecule = "CCOc1ccc(C(c2c(O)c3ccccc3oc2=O)c2c(O)c3ccccc3oc2=O)cc1"
measurement_type = "TGI"
value_modifier = ">"
result_value = 100

[[record]]
molecule = "CCOC(=O)c1[nH]n(-c2ccccc2)c(=O)c1C=NC(=S)C(N)=S"
measurement_type = "TGI"
value_modifier = ">"
result_value = 100

[[record]]
molecule = "CCC(=O)n1c(=O)n(-c2ccc([N+](=O)[O-])cc2)c(=O)n1C(=O)CC"
measurement_type = "TGI"
value_modifier = ">"
result_value = 100

[[record]]
molecule = "CC(=O)[CH-]C(=O)c1ccccc1.CC(=O)[CH-]C(=O)c1ccccc1.CC12CC3(C)CC(C)(C1)CC([O-])(C2)C3.CC[O-].[Ti+4]"
measurement_type = "TGI"
value_modifier = "="
result_value = 62.1

[[record]]
molecule = "CC(C)(C)n1cc(-c2ccnc(NCCCNS(=O)(=O)c3ccc(Cl)cc3)c2)c(-c2cccc(O)c2)n1"
measurement_type = "TGI"
value_modifier = "="
result_value = 5.93

[[record]]
molecule = "CN1CCN(CCCCNc2cc3c4ccccc4c(NCCCCN4CCN(C)CC4)cc3c3ccccc23)CC1"
measurement_type = "TGI"
value_modifier = "="
result_value = 18.4

[[record]]
molecule = "COc1ccc(C2c3c(-c4ccccc4)nn(-c4ccccc4)c3Oc3ncn(N)c(=N)c32)cc1OC (configuration not stated)"
measurement_type = "TGI"
value_modifier = "="
result_value = 4.24

[[record]]
molecule = "O=C(/C=C/c1ccsc1)c1ccc(Cl)s1"
measurement_type = "TGI"
value_modifier = ">"
result_value = 100

[[record]]
molecule = "Cc1ccc(C(=O)Nc2ccccc2C(=O)N/N=C(\\c2ccccc2)c2ccccn2)cc1"
measurement_type = "TGI"
value_modifier = ">"
result_value = 100

[[record]]
molecule = "O=C1c2c(O)cccc2C(C(=O)CCCC(=O)C2c3cccc(O)c3C(=O)c3c(O)cccc32)c2cccc(O)c21"
measurement_type = "TGI"
value_modifier = "="
result_value = 1.67

[[record]]
molecule = "Cc1[nH]ccc2cc3nc4ccccc4c3cc12"
measurement_type = "TGI"
value_modifier = "="
result_value = 12.9

[[record]]
molecule = "C/C(CC(=O)Nc1ccc(NC(=O)/C(C)=N/NS(=O)(=O)c2ccc(C)cc2)cc1)=N\\NS(=O)(=O)c1ccc(C)cc1"
measurement_type = "TGI"
value_modifier = ">"
result_value = 100


* * *

Tested on: A498 renal
Experiment: NCI tumour cell line growth inhibition, 48 h; in the data active = GI50 below about 0.43 µM; inactive = the rest
Labels: Y (active), N (inactive)

[[record]]
molecule = "CC1(C)CC(O)CCCCCCOc2c(CN)cccc2NC(=O)c2nc(cnc2N)-c2ccc(cc2)S1(=O)=O (stereo unspecified)"
class_assignment = "Y"

[[record]]
molecule = "CCN1CCN(c2cc(C)nc(NCc3cc(Nc4ccnc5cc(Cl)ccc45)ccc3F)n2)CC1"
class_assignment = "N"

[[record]]
molecule = "O=C(/C=C\\c1ccc(OCCCCCC[P+](c2ccccc2)(c2ccccc2)c2ccccc2)cc1)c1ccc2c(c1)OCCO2"
class_assignment = "Y"

[[record]]
molecule = "O=C1C(Cl)=C(Nc2ccc3c(c2NC2=C(Cl)C(=O)c4ccccc4C2=O)C(=O)c2ccccc2C3=O)C(=O)c2ccccc21"
class_assignment = "N"

[[record]]
molecule = "COc1ccc(-c2cc3nccn3c(Nc3ncccc3C(N)=O)n2)cc1OC"
class_assignment = "N"

[[record]]
molecule = "CN(C)CCN1C(=O)c2cccc3c(-c4ccc5ncn(C6CCCCC6)c5c4)ccc(c23)C1=O"
class_assignment = "N"


* * *

Recorded log10 TGI, one value per entry.
System: COLO 205 colon
Assay: NCI tumour cell line growth inhibition, 48 h
measurement-type: log10 TGI (log10 of the value in µM)

[[record]]
compound_string = "COC(=O)C1=C2CO[C@@H]3C[C@H]4C(C)(C)CCC[C@]4(C)C(=CC1)[C@]23C"
measurement_type = "log10 TGI"
result_value = 1.85

[[record]]
compound_string = "CC(C)(C)[Si](Nc1ccccc1)(c1ccccc1)c1ccccc1"
measurement_type = "log10 TGI"
result_value = 1.47

[[record]]
compound_string = "Cc1sc2c(c1C)C(c1ccc(Cl)cc1)=N[C@@H](CC(=O)Nc1ccc(O)cc1)c1nnc(C)n1-2"
measurement_type = "log10 TGI"
result_value = 1.16

[[record]]
compound_string = "COc1ccc2c(c1)-c1c(c3ccccc3n1CCN1CCOCC1)CC2"
measurement_type = "log10 TGI"
result_value = 1.51

[[record]]
compound_string = "CCOC(=O)c1[nH]n(-c2ccccc2)c(=O)c1C=NC(=S)C(N)=S"
measurement_type = "log10 TGI"
result_value = 1.84

[[record]]
compound_string = "ClC1=C(Cl)C(Cl)=C(Cl)C1=Cc1ccc(Cl)cc1Cl"
measurement_type = "log10 TGI"
result_value = 0.35

